Tested on: HIV-1 (IIIB)
Test: microbe, parasite or virus in culture
Format: cell-based
Details: protection of CEM cells against virus-induced cytopathicity at the concentration in the previous column
Parameter Measured: HIV-1 % Protection (%)
# unit: % | format: bare number

| Molecule | Measurement Target | Parameter Measured | Recorded Result |
| --- | --- | --- | --- |
| Cc1ccc(C)c(C(C)S(=O)(=O)c2cc(C)cc(C)[n+]2[O-])c1 (centres unmarked) | HIV-1 (IIIB) | HIV-1 % Protection | 37.5 |
| [O-][n+]1cc(Cl)ccc1SCc1ccccc1 | HIV-1 (IIIB) | HIV-1 % Protection | 0.0 |

[ask] Look up HIV-1 % Protection for this molecule: O=S(=O)(Cc1ccc(-c2ccccc2)cc1)c1cccc[n+]1[O-]
[reply] 37.5

[ask] Look up HIV-1 % Protection for this molecule: CC(C)Cc1ccc(CS(=O)(=O)c2cccc[n+]2[O-])cc1
[reply] 37.5

[ask] Look up HIV-1 % Protection for this molecule: COc1ccc(CS(=O)(=O)c2cccc[n+]2[O-])cc1OC
[reply] 37.5
